System: T-47D breast
assay_method_text: NCI-60 one-dose screen, 48 h
experimental_context: 10 µM
Compounds without any hit were thinned out: in the full panel of roughly 83,000, 20% have a hit. Calls of active or inactive are those of the source. The calls were made as follows: active = growth percent below 10; inactive = the rest.
Respond with a class label; see label 1 (active), label 0 (inactive)

Worked examples, 5 molecules total:
molecule: NC1CCc2cc(O)c(O)cc2C1 (stereo not drawn)
category_label: label 0

molecule: CC1=C2C(=C[C@@](C)(COC(=O)c3ccc(S(=O)(=O)F)cc3)[C@@H]2O)C(=O)[C@](C)(O)C12CC2
category_label: label 1

molecule: CC(=O)O[C@@H]1[C@@H]2O[C@H]2[C@@](C)(O)C(=O)[C@@H](C)C/C=C/[C@H]2[C@@H]3O[C@]3(C)[C@@H](C)C3[C@H](Cc4ccccc4)NC(=O)[C@@]312 (stereo partly drawn)
category_label: label 0

molecule: CC1=C2C(=C[C@@](C)(COC(=O)c3ccc(S(=O)(=O)F)cc3)[C@@H]2OC(=O)c2ccc(S(=O)(=O)F)cc2)C(=O)[C@](C)(O)C12CC2
category_label: label 1

molecule: N#Cc1c(-n2c(Br)c(Br)c3cc(Br)ccc32)[nH]c2c(Br)cc(Br)cc12
category_label: label 1

Called result for COc1cccc2c1cc([N+](=O)[O-])c1c(C(=O)O)cc3c(c12)OCO3 label 0

Please give the result for CC1=C2C(=C[C@@](C)(C=O)[C@@H]2O)C(=O)[C@](C)(O)C12CC2 too. label 0

What do we get for COc1cc2c(O[C@@H]3OC[C@H](OC(C)=O)[C@H](OC(C)=O)[C@H]3O)c3c(c(-c4ccc5c(c4)OCO5)c2cc1OC)C(=O)OC3 ? label 1

Same lookup for CC1=C[C@H]2O[C@@H]3C[C@H]4OC(=O)/C=C\C=C\[C@H]([C@@H](C)O)OCC[C@@H](C)[C@H](O)C(=O)OC[C@@]2(CC1)[C@]4(C)[C@]31CO1 , please. label 1
